TESTED ON: cysteines in MDA-MB-231 and Ramos cells (Homo sapiens, UniProt Q96RN5)
TEST: Competitive isoTOP-ABPP in situ (fragment-treated cells)
Format: cell-based
APPLIED CONDITIONS: 200 μM, insitu, 231
Flag rule - isoTOP-ABPP ratio Q96RN5_C618 less than 0.9 flags yes; the remaining entries get no.

# COMPOUND, LABEL VALUE
measured = [
    ("CC(C)CCOCCNC(=O)CCl", "yes"),
    ("C=CC(=O)Nc1cc(F)c(N2CCN(C(=O)OC(C)(C)C)CC2)c(F)c1", "no"),
    ("CC1CCc2ccccc2N1C(=O)CCl (stereo not drawn)", "no"),
    ("COc1ccccc1OCCNC(=O)CCl", "yes"),
]

is_below(isoTOP-ABPP ratio Q96RN5_C618, 0.9) for `O=C(CCl)NC12CC3CC(CC(C3)C1)C2` ?
no

###

Recorded isoTOP-ABPP ratio, P50851_C2675 for the following compounds
TESTED ON: LRBA C2675 (P50851) (Homo sapiens)
TEST: Competitive isoTOP-ABPP, cell lysates
Type: binding
APPLIED CONDITIONS: 500 μM, invitro, ramos
Enter the number alone.

# STRUCTURE AS SMILES, METRIC NAME, VAL
records = [
    ("Cn1cc(S(=O)(=O)N2CCOCC2)cc1C(=O)NC(=O)CCl", "isoTOP-ABPP ratio, P50851_C2675", 1.3),
    ("O=C(CCl)N1CCN(S(=O)(=O)c2ccccc2F)CC1", "isoTOP-ABPP ratio, P50851_C2675", 1.3),
    ("O=C(CCl)NC(=O)NC12CC3CC(CC(C3)C1)C2", "isoTOP-ABPP ratio, P50851_C2675", 1.5),
]

// below: isoTOP-ABPP ratio, P50851_C2675 requested for another compound
Output isoTOP-ABPP ratio, P50851_C2675 of `C=CC(=O)N(c1ccccc1)c1ccc(Br)cc1`
20.0

###

TESTED ON: UBE2L3 C86 (P68036) (Homo sapiens, UniProt P68036)
TEST: Competitive isoTOP-ABPP, cell lysates
Assay type: binding
APPLIED CONDITIONS: 500 μM, invitro, ramos
Recorded isoTOP-ABPP ratio, P68036_C86 for the following compounds
Enter the number alone.

Known isoTOP-ABPP ratio, P68036_C86 results, listed for orientation:
# STRUCTURE AS SMILES, isoTOP-ABPP ratio, P68036_C86
records = [
    ("Cn1cc(S(=O)(=O)N2CCOCC2)cc1C(=O)NC(=O)CCl", 1.0),
    ("O=C(CCl)N1CCN(S(=O)(=O)c2ccccc2F)CC1", 0.4),
    ("C=CC(=O)N(c1ccccc1)c1ccc(Br)cc1", 4.8),
]

// below: isoTOP-ABPP ratio, P68036_C86 requested for another compound
Write down the reported isoTOP-ABPP ratio, P68036_C86 (system: UBE2L3 C86 (P68036) (Homo sapiens, UniProt P68036)) of `O=C(CCl)NCCc1c[nH]c2ccccc12`
0.8

###

TESTED ON: cysteines in MDA-MB-231 and Ramos cells (Homo sapiens)
Sequence (Q2NL82 1-804): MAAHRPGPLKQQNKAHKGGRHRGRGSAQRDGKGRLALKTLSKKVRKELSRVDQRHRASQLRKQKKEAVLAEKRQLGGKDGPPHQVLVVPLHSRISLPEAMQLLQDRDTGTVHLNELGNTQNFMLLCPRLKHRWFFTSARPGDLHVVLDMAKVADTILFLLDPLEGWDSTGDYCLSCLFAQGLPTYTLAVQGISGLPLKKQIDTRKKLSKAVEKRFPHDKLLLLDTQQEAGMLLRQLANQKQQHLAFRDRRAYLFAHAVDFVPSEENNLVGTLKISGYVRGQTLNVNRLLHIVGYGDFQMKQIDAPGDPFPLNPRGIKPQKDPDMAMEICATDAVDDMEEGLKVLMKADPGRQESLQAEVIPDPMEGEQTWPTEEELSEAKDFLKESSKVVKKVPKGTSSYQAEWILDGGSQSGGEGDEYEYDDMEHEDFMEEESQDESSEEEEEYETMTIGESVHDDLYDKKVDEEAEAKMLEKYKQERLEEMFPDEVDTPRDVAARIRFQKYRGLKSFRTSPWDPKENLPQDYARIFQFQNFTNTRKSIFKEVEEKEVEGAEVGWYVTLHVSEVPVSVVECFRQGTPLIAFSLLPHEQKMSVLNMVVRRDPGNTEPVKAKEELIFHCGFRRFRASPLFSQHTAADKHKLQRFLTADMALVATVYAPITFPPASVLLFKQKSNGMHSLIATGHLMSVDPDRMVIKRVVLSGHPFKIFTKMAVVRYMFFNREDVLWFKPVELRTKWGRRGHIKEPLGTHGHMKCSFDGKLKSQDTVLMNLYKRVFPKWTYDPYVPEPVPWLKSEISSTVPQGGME
TEST: Competitive isoTOP-ABPP in situ (fragment-treated cells)
Format: cell-based
APPLIED CONDITIONS: 200 μM, insitu, 231
Assign T to entries whose isoTOP-ABPP ratio Q2NL82_C126 meets or exceeds 0.9; assign F to the rest.

Here's what some known entries look like.
# COMPOUND, TESTED ON, LABEL VALUE
data = [
    ("O=C(CCl)Nc1cccc2ncccc12", "cysteines in MDA-MB-231 and Ramos cells (Homo sapiens)", "T"),
    ("Cc1ccc(C=C(C#N)C(=O)NCCN2CCOCC2)cc1", "cysteines in MDA-MB-231 and Ramos cells (Homo sapiens)", "F"),
    ("CC(C)CCOCCNC(=O)CCl", "cysteines in MDA-MB-231 and Ramos cells (Homo sapiens)", "F"),
]

Could you now consider this next compound?
Quick check, isoTOP-ABPP ratio Q2NL82_C126 >= 0.9? CC1CCc2ccccc2N1C(=O)CCl (centres unmarked)
T

###

TESTED ON: cysteines in MDA-MB-231 and Ramos cells (Homo sapiens, UniProt Q9NS86)
TEST: Competitive isoTOP-ABPP in situ (fragment-treated cells)
Format: cell-based
APPLIED CONDITIONS: 200 μM, insitu, 231
Flag rule - isoTOP-ABPP ratio Q9NS86_C187 less than 0.5 flags Met; the remaining entries get Not met.

Here's what some known entries look like.
# COMPOUND, TESTED ON, LABEL VALUE
rows = [
    ("CC1CCc2ccccc2N1C(=O)CCl (centres unmarked)", "cysteines in MDA-MB-231 and Ramos cells (Homo sapiens, UniProt Q9NS86)", "Not met"),
    ("Cc1ccc(C=C(C#N)C(=O)NCCN2CCOCC2)cc1", "cysteines in MDA-MB-231 and Ramos cells (Homo sapiens, UniProt Q9NS86)", "Not met"),
    ("O=C(CCl)N1CCN(S(=O)(=O)c2ccccc2F)CC1", "cysteines in MDA-MB-231 and Ramos cells (Homo sapiens, UniProt Q9NS86)", "Not met"),
]

Could you now consider this next compound?
is_below(isoTOP-ABPP ratio Q9NS86_C187, 0.5) for `CC(C)CCOCCNC(=O)CCl` ?
Met

###

TESTED ON: cysteines in MDA-MB-231 and Ramos cells (Homo sapiens, UniProt Q9NRG0)
TEST: Competitive isoTOP-ABPP in situ (fragment-treated cells)
Assay type: cell-based
APPLIED CONDITIONS: 200 μM, insitu, 231
Flag rule - isoTOP-ABPP ratio Q9NRG0_C55 less than 1 flags Condition met; the remaining entries get Condition not met.

Here's what some known entries look like.
# COMPOUND, LABEL VALUE
rows = [
    ("O=C(CCl)Nc1cccc2ncccc12", "Condition not met"),
    ("CC1CCc2ccccc2N1C(=O)CCl (centres unmarked)", "Condition not met"),
]

Could you now consider this next compound?
is_below(isoTOP-ABPP ratio Q9NRG0_C55, 1) for `Cc1ccc(C=C(C#N)C(=O)NCCN2CCOCC2)cc1` ?
Condition met

###

Recorded isoTOP-ABPP ratio Q96S55_C272 for the following compounds
TESTED ON: cysteines in MDA-MB-231 and Ramos cells (Homo sapiens, UniProt Q96S55)
TEST: Competitive isoTOP-ABPP in situ (fragment-treated cells)
Assay type: cell-based
APPLIED CONDITIONS: 200 μM, insitu, 231
Enter the number alone.

# COMPOUND, VAL
measured = [
    ("Cc1ccc(C=C(C#N)C(=O)NCCN2CCOCC2)cc1 [compound 41]", 0.8),
    ("CC(C)CCOCCNC(=O)CCl [compound 27]", 0.9),
    ("O=C(CCl)Nc1cccc2ncccc12 [compound 51]", 0.9),
    ("C=CC(=O)Nc1cc(F)c(N2CCN(C(=O)OC(C)(C)C)CC2)c(F)c1 [compound 38]", 1.3),
]

// below: isoTOP-ABPP ratio Q96S55_C272 requested for another compound
Output isoTOP-ABPP ratio Q96S55_C272 of O=C(CCl)N1CCN(S(=O)(=O)c2ccccc2F)CC1 [compound 10]
1.2
